TARGET ENTITY: GABARAPL2, P60520
Sequence (P60520 whole entry, the tested form may be a part): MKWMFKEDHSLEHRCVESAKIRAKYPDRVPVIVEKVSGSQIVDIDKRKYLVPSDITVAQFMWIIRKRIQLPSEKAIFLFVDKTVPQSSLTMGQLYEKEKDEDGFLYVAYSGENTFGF
PROTOCOL NOTES: median log2 fold change of GCK-ALFA target abundance (FLAG IP / Myc IP barcode read proportion) (log2 ratio); each designed protein is fused to an ALFA-tag nanobody in HEK293 cells to bring the named protein to FLAG-tagged glucokinase (GCK); Myc marks an untargeted standard; higher = target protein stabilised (more abundant)
CONDITION: target protein: 3xFLAG-MCP-GCK-ALFA reporter; HEK293 landing pad (RPLP)
Would you please tag the item TRUE when its median log2 fold change is 0.1 or above, and FALSE when it is below?

The following binders have reported results that may help.
# BINDER, CLASS NAME
rows = [
    ("GBRAPL2_0_7257 (protein) MEEVLKKMKELSIEEAAKLAKEEIEKLVADPSVTVEELEEAIEKLLEVLAEKVKEEKTEEALEILDEFVDYATELAAKVDPNLAAYVASYGGSLLYELEE", "FALSE"),
    ("GBRAPL2_175_7338 (protein) AARAALLARIIELLDELAERADDEVADLLDAAAAVLEEEGEAGAERAARLVAEAAREAADDPRLRAALEAVAAALAALAAGAAPAEVQALLDEAEAILAE", "FALSE"),
    ("GBRAPL2_54_7374 (protein) MKKVEITIDYVVEGNEEELEKVEKVLKKELEELKKKLESEFNAKTKISVERENGVLTIEVDVITDEKDVDKVIDLALETAKKVSEKTGVKVSVVIGIKEL", "FALSE"),
    ("GBRAPL2_0_7201 (protein) YLEEIEKAKKLSPEEAFKKLKELVKKLAEDDSISLEELEEILEKILKLAAEKVKKTKKEEDLEKFEEIVDLATEAAAKRDPLLAAYIDTYGGSLLIEVEE", "FALSE"),
    ("GBRAPL2_0_7192 (protein) YEERLEEISKLPIEEFAKEAVRIVEEAAKDPSLSLEELEEIALRAIRLLYEKVKEEKTEEAEDIYVEAADRIREILKKIDPNLAAYVATEAGALLYEWES", "FALSE"),
    ("GBRAPL2_54_7390 (protein) LVEVELILIVSGELPEEEIERIEELLKEKTEELLKKHSDKIEKILRFEREREDGVVLISVELLVKEEYKEEVIDELIKIAEEIREESGVEIKSVIAESSD", "FALSE"),
]

# bool: median log2 fold change of GBRAPL2_63_7407 (protein) MTVRKVLEALLEHAILDLDTAERLEEALENETDEEELFETLVEAILDIRPELTPEEAREVAEKLVELAKQSEELLKEAVRALTTLSKEEFLAYLDELVAK >= 0.1 FALSE

Please check the record GBRAPL2_128_7286 (protein) MKLVEIDIDIKNKEEYELAKAVLDDIAKNSSPKVAKLADAAKDMAEEAAKEGYKEKVTVADILTDEEAEELKKLLEELKEKYGKEKVEKVIKLTVDDLPP and state if its median log2 fold change is at or above 0.1. FALSE

Does the reported median log2 fold change for GBRAPL2_175_7339 (protein) AAYEKLLAEIIELLLEIAEKANDEVSDLLEAAAAVLETDGLAGAERAARLVKEAAEEAKDNPQLQEALKLIAEALKALAAGAAPEEVKKLLDKAKEVLKK fall at or above the 0.1 mark? TRUE

Determine whether measured median log2 fold change meets or exceeds 0.1 for GBRAPL2_0_7191 (protein) YEEELKKISELPIEEFAKRGVELVERAAKDPSLTLEELEELAERVIELLIEKVKEEKTEEAEEIYVEAADRIREILLKIDPNLAADVATEAGAGLYEIES TRUE

Reported median log2 fold change reaches at least 0.1 for GBRAPL2_128_7299 (protein) MKLVEIDITIENKEEAELVKKILEEIAKKGSEEVKKLADAAKDLAETLAEEGYGEKGTVVDILSDEDAEELKKLYEELAEKYGKEKVEKRIKLEVDDIPP ? FALSE

Please indicate if the recorded median log2 fold change for GBRAPL2_151_7305 (protein) SEKEKAIELLEEAAKAAEEAIKKLSEEQELAKTEFELIAGGLEALAILVEETDDEEEIKRLIKEAAELTEDAAKLAEELGLEEEAKKLKEISKELKKLAE meets or exceeds 0.1. FALSE

Has GBRAPL2_0_7199 (protein) YLEEIEKAKELSPEEAFEKLEKLVKELAEDDSISLEELEEILEAIIELAAEKVKETKREEDLEKFDRIVDLAAEAAAKRDPNLAAYIRTYGGSLLIEVEE a recorded median log2 fold change greater than or equal to 0.1? TRUE

Quick check, median log2 fold change >= 0.1? GBRAPL2_0_7228 (protein) IEEEIEKISKLSIEEAAKAAVELVKEMAESGKYSLEEIEEFVEKAAEVLEKKIKEEKKEESLDIAAETADEVRKILEKIDPNLAAYAASEIGSGIMEAIS FALSE

Entry GBRAPL2_54_7382 (protein) AKKVRITIEFIVEGNEEELEKVKKVAKELSEELAKELKEKYGATSSISFEEENGVLTITIDVITDESAVDDVIDRALELKEEIEKKTGLKVSVVIGIEYL : is its median log2 fold change no less than 0.1? TRUE

Is it the case that GBRAPL2_93_7422 (protein) MKVKVTIIRLVNGEVVEEEEREVTVEEAKKLIEELLKEAVANGERVIIEIYDKDTGWTFGDYVENEEQAEKALKRAKEILDDLEKEGKEVEITITIEKKT has median log2 fold change reaching or exceeding 0.1? TRUE

For this binder, is measured median log2 fold change 0.1 or higher? GBRAPL2_175_7333 (protein) SARQELVKRIRDLLLKLAEKADDETQDLLLAAAALLEEGGEENLKRALELVKEAAKEEKNDATLQQAAAELAAALALLIEGKPVEEAQKEIDAAAKLLAK TRUE
